- Test system: HS 578T breast
- run.description: NCI tumour cell line growth inhibition, 48 h
Measured TGI, listed per entry.
quantity.kind: TGI

INSERT INTO assay_data (smi, target_of_assay, result) VALUES
  ('COc1cc2c3c(n(CCCN=[N+]=[N-])c(=O)c2cc1OC)-c1ccc(F)cc1C3=O', 'HS 578T breast', '> 100 µM'),
  ('Cc1cccc(N=Nc2c(C)nn(C(=O)CC(=O)Nc3ccc(Cl)cc3)c2C)c1', 'HS 578T breast', '> 100 µM'),
  ('CC(C)CCN(CCC(C)C)CC(=O)Nc1ccc(S(=O)(=O)c2ccc(NC(=O)CN(CCC(C)C)CCC(C)C)cc2)cc1', 'HS 578T breast', '70.3 µM'),
  ('COc1ccc(Nc2ncc(I)c(NCCCNC(=O)C3CCC3)n2)cc1', 'HS 578T breast', '13.2 µM'),
  ('c1ccc(CSC(SCc2ccccc2)c2cccc3ccccc23)cc1', 'HS 578T breast', '> 10 µM'),
  ('NC(=O)N/N=C\CC(O)(C(F)(F)Cl)C(F)(F)Cl', 'HS 578T breast', '> 10 µM'),
  ('S=C(NCCc1ccccn1)N/N=C(\c1ccccc1)c1ccccn1', 'HS 578T breast', '> 100 µM'),
  ('COc1cc(OC)c(C(=O)/C=C/c2ccc(C#N)cc2)c(OC)c1', 'HS 578T breast', '> 50 µM'),
  ('CCOC(=O)c1c(NN2CCN(CC(F)(F)F)CC2)oc(/C=C2\C=Nc3ncccc32)c1O', 'HS 578T breast', '6.72 µM'),
  ('COc1cccc(S(=O)(=O)NC2=NCCN2C(=S)SN2CCn3c2nsc3=S)c1', 'HS 578T breast', '> 100 µM');

* * *

- System: HOP-62 NSCLC
- run.description: NCI tumour cell line growth inhibition, 48 h
quantity.kind: TGI

INSERT INTO results (compound, target_of_assay, result) VALUES
  ('CC[C@]12CN3CCc4c([nH]c5ccccc45)[C@@](C(=O)OC)(c4cc5c(cc4OC)N(C)[C@H]4[C@@](O)(C(=O)OC)[C@H](OC(C)=O)[C@]6(CC)C=CCN7CC[C@]54[C@@H]76)CC(C3)[C@H]1O2 (stereo partly drawn)', 'HOP-62 NSCLC', '26.9 µM'),
  ('CCn1nc(C2CCN(C(=O)CCO)CC2)nc1-c1cnc(N)c(-c2nnc(C(C)(C)C)o2)n1', 'HOP-62 NSCLC', '> 100 µM'),
  ('O=C1OC2(c3ccc(O)cc3Oc3cc(O)ccc32)c2cccc3cccc1c23', 'HOP-62 NSCLC', '33.9 µM'),
  ('Cn1cnc([N+](=O)[O-])c1Sc1n[nH]c(-c2ccc(Cl)cc2)n1', 'HOP-62 NSCLC', '54.9 µM'),
  ('O=S(Cc1ccccc1)c1ccccc1Cn1cccc1 (stereo not drawn)', 'HOP-62 NSCLC', '> 100 µM'),
  ('Cn1cnc([N+](=O)[O-])c1S(=O)(=O)Oc1ccc(Cl)cc1', 'HOP-62 NSCLC', '39 µM'),
  ('CSc1nc(-c2ccccc2)[nH]c(=O)n1', 'HOP-62 NSCLC', '> 100 µM'),
  ('COc1ccc(Sc2[nH]c(C=O)c3ccccc23)cc1', 'HOP-62 NSCLC', '29.7 µM'),
  ('Cn1c(=O)c2c(nc3n2CCCC(=O)N3CCCCl)n(C)c1=O', 'HOP-62 NSCLC', '> 100 µM'),
  ('COc1cc(/C=C2\CCC(C)C3=C2N=c2s/c(=C/c4ccc(Cl)cc4)c(=O)n2C3c2cc(OC)c(OC)c(OC)c2)cc(OC)c1OC (stereo not drawn)', 'HOP-62 NSCLC', '> 100 µM'),
  ('Oc1ccc(Br)cc1C=Nc1c(NC2CCCCC2)oc2ccc(Br)cc12', 'HOP-62 NSCLC', '> 100 µM'),
  ('O=C(CSCC(=O)N/N=C\c1ccc(F)cc1F)N/N=C\c1ccc(F)cc1F', 'HOP-62 NSCLC', '> 100 µM'),
  ('c1ccc(/C(=N\Nc2nc3ccccc3[nH]2)c2ccccn2)cc1', 'HOP-62 NSCLC', '2.12 µM'),
  ('COc1ccc(OC)c(N2CC(O)=C(c3nc4ccccc4s3)C2=N)c1', 'HOP-62 NSCLC', '> 100 µM'),
  ('O=C1CCC2(c3ccc(Cl)cc3)Nc3ccccc3N12 (stereo not drawn)', 'HOP-62 NSCLC', '> 100 µM'),
  ('Cc1n[nH]c(=O)n1C1CC1', 'HOP-62 NSCLC', '> 100 µM'),
  ('COC(=O)C(Cc1nc2ccc(Cl)cc2[nH]c1=O)C(=O)C(=O)Nc1cc(C)ccc1C (stereo not drawn)', 'HOP-62 NSCLC', '> 100 µM'),
  ('Nc1nc(Sc2ccc([N+](=O)[O-])c3nonc23)c2ncn(C3OC(CO)C(O)C3O)c2n1 (stereo not drawn)', 'HOP-62 NSCLC', '> 100 µM');
